# testSystem: pyridine-esterase (Oryctolagus cuniculus, UniProt P12337, A196R/H30K)
# Construct: made in house; host or cells: transgenic tobacco (Samson) and tomato (UC82B) plants, tissue extracts
# Sequence (P12337 19-565 H30K/A196R): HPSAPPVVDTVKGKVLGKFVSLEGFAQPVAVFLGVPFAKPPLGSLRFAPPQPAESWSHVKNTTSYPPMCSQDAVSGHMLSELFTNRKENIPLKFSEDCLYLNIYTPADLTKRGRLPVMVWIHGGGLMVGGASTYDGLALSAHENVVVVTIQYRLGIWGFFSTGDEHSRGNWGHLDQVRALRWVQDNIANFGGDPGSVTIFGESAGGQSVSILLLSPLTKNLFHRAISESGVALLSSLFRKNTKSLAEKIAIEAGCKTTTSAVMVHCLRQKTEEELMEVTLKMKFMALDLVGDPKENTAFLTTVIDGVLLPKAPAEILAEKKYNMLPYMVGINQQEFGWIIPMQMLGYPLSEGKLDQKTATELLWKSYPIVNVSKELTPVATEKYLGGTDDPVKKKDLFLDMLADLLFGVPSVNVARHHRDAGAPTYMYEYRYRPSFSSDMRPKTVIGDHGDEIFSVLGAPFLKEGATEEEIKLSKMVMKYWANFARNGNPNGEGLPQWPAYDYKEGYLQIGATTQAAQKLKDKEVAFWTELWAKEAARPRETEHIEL
# Assay type: biochemical, rabbit
# testContext: tobacco line #37437 extract, FIG. 4
# Method: Esterase activity assays. Esterase activity was measured in vitro by conversion of either [^14 C]thiazopyr or [^14 C]MON 14300 to their corresponding monoacid. […] Following centrifugation (12,000× g for 3 min), the supernatant was analyzed by HPLC/RAD (radioactivity detection) to resolve the monoacid from the parent herbicide and other metabolites. […] Tissue extracts from 3 tobacco R1 seedlings were employed for further studies. […] In comparison, less that 2% monoacid was detected in line (#37436). […]
endpointName: hydrolysis by pyridine-esterase (substrate specificity)

| molecule | testSystem | valueObserved |
| --- | --- | --- |
| COC(=O)c1c(C(F)F)nc(C(F)(F)F)c(C2=NCCS2)c1CC(C)C [thiazopyr] | pyridine-esterase (Oryctolagus cuniculus, UniProt P12337, A196R/H30K) | clearly hydrolyzed |
| COC(=O)c1c(C(F)F)nc(C(F)(F)F)c(C(=O)n2cccn2)c1CC(C)C [MON 14300] | pyridine-esterase (Oryctolagus cuniculus, UniProt P12337, A196R/H30K) | clearly hydrolyzed |
